Data origin, for the record: the array DNA melting data of Ke et al. (doi:10.1101/2024.01.08.574731)

For each record, write down the corresponding folding enthalpy.
- Method summary: folding enthalpy; higher = less favourable; fluorescence melt of hairpins on a sequencing array, two-state fit
- Test context: sodium 0.088 M
Numbers only, in kcal/mol.

Would you please look over these solved cases?
• GGGGACGAAAGTCTCCCC ((((((....)))..))) = -14.3
• GGCTCGGCGAAAGCCGCC (((..(((....)))))) = -8.18

Count: 8. Required value per item: folding enthalpy.
1. GCGAGGCGAAAGCTCCGC (((..((....))..)))
2. GATCTCCCAGGAGATC ((((((....))))))
3. GGTAGCGAAAGCTAGACC ((((((....)))..)))
4. GATCTATACTAGATC ((((((...))))))
5. GTCCAGGGAAACTTGGGC (.(((.(....).))).)
6. GGCAACGGAAACGTCGCC (((.(((....))).)))
7. GCGACGCGAAAGCCACGC (((..((....))..)))
8. GCATATACGAAAGTATGC (((..(((....))))))

-25.2
-36.4
-14.3
-32.6
-29
-46.8
-17.7
-22.3

Count: 2. Required value per item: folding enthalpy.
1. GGTAGCGAAAGCTCACC ((((((....))).)))
2. GAGATGCGAAAGCAACTC (((.(((....))).)))

1: -16.8; 2: -23
